Biological target: SARM1 (Homo sapiens)
Construct: inventors produced full-length SARM1 for NAD enzyme activity experiments, and used it for screening; His (C); made in house; host or cells: HEK293 cells, transient transfection; supernatant of digitonin lysate, no further purification described
Sequence (Q6SZW1 28-724): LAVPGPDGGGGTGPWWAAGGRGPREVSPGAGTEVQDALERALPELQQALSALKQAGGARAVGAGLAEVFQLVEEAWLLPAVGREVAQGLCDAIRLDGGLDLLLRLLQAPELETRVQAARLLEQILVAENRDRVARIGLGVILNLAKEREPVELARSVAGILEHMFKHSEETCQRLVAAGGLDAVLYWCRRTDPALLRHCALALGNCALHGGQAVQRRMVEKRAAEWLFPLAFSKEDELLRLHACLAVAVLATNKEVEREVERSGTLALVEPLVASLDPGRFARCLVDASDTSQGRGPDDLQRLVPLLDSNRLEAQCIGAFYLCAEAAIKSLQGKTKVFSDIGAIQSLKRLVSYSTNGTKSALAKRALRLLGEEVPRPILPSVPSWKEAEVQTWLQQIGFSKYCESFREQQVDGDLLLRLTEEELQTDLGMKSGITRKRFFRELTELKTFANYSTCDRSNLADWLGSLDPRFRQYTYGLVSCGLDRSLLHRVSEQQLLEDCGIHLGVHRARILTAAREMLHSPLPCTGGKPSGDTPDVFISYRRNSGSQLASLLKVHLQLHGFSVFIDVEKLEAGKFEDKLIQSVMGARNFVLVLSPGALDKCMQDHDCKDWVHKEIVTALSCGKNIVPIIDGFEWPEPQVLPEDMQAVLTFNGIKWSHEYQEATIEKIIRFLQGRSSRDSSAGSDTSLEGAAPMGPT
Assay: In vitro biochemical assay for inhibiting SARM1 enzyme activity (PC6 fluorescence, NADase)
Settings: full-length SARM1 from transfected HEK293 cells; 50 µM NAD, 50 µM PC6, 50 µM NMN activator; room temperature, 30 minutes; read-out: IC50
pIC50: −log10 of the molar value.
Please respond with reported pIC50 for every item in the list.

Annotate the molecule O=C1C(Cc2ccc(Cl)cc2)CCN1c1ccc2c(c1)COc1cnccc1-2 (centres unmarked) with its measured pIC50.
> 7.00

Tell me measured pIC50 for O=C1C(Cc2cc3ccccc3o2)CCN1c1ccc2c(c1)COc1cnccc1-2 (centres unmarked) please.
5.00 to 6.00

Give the measured pIC50 for `Cc1ccc(CNC(=O)Nc2ccc3c(c2)COc2cnccc2-3)cc1`
6.00 to 7.00

Give the reported pIC50 for this molecule. `O=C1[C@H](Cc2ccc(F)cc2)CCN1c1ccc2c(c1)COc1cnccc1-2`
> 7.00

Retrieve pIC50 measured for `O=C(CCc1ccc(F)cc1)Nc1cnc2c(c1)COc1cnccc1-2` and print it.
> 7.00
